test: viability loss with induced miR-34 in A549 – imaging, A549 dox-inducible miR-34, nuclei and caspase counts, primary screen (AID 1347080); conditions: A549 miR-34 inducible, Hoechst nuclei count, 48 h; measured here: total cells without miR-34 induction
Assign classes using reported cell count values and the ranges Low: < 6000; Mid: ≥ 6000 and < 8000; High: ≥ 8000, please.

Example results:
CCCCC/C=C\CCCCCCCCCCCCC(=O)O	Low
CSc1cc2c(cc1C(F)(F)F)N(C(=O)Nc1cccnc1)CC2	High
C=C(N)N[C@@H](CCC(=O)O)C(=O)O	High

Q: Lab note: which band did `CCCCC[C@H](O)/C=C/[C@@H]1[C@@H](C/C=C\CCCCO)[C@@H](O)C[C@H]1O` land in?
A: Mid

Q: Looking at `COc1cc2c(Oc3ccc(NC(=O)C4(C(=O)Nc5ccc(F)cc5)CC4)cc3F)ccnc2cc1OCCCN1CCOCC1` , which class would you pick?
A: Low

Q: Which of the defined bands does the recorded cell count of `CCCCOC(=O)c1cc2c(cn1)[nH]c1ccccc12` sit within?
A: High

Q: // return the class label for CC1(C(=O)O)NCCc2cc(O)c(O)cc21 (stereo not given)
A: High

Q: Entry CC(C)c1cc2c(c(O)c1O)C13CCCC(C)(C)C1CC2OC3=O (stereo not given) belongs to which category?
A: Low

Q: Class (by measured cell count) for `CCCCC[C@H](O)/C=C/[C@H]1C(=O)C[C@H](O)[C@@H]1C/C=C\CCCC(=O)NC(CO)CO`
A: Mid

Q: Assign a bin to `CCCCCCCCCCCCCC(=O)N[C@H](CO)[C@H](O)c1ccc([N+](=O)[O-])cc1`
A: Mid

Q: Hi there! Could you help me figure out the category for CCCCC1C(=O)CC[C@H]2[C@@H]1CC(=O)[C@@H]2C/C=C\CCCC(=O)O (stereo not given in full) please?
A: Low

Q: Pick a category. Item: `c1ccc2sc(N3CCN(Cc4ccc5c(c4)OCO5)CC3)nc2c1`
A: High

Q: // return the class label for `COc1ccc(C[C@H](N)C(=O)N[C@H]2[C@@H](O)[C@H](n3cnc4c(N(C)C)ncnc43)O[C@@H]2O)cc1`
A: Low

Q: Could you tell me which band Brc1cc2c(cc1[C@H]1Nc3ccccc3[C@H]3C=CC[C@H]31)OCO2 (racemic) belongs to?
A: Mid

Q: Kindly state the category for this molecule: `Nc1c(S(=O)(=O)O)cc(Nc2cccc3ccccc23)c2c1C(=O)c1ccccc1C2=O`
A: High

----------
assay: growth inhibition of DIPG cells – cell-based, MIPE4.0 library, CellTiter-Glo luminescence, qHTS (AID 1347066); conditions: SU-DIPG-VI viability, CellTiter-Glo ATP luminescence;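 also: cells exposed to compound for 48 hours before readout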
Results filed as inconclusive are left out. Active and inactive are the calls of the source. The limit is not given here; nearly all actives have AC50 up to about 30 µM.
measurement type: AC50

Would you please look over these solved cases?
COc1cc(NC(=O)c2ccc(-c3ccc(Cl)cc3)o2)cc(OC)c1	inactive
O=C1NC(=O)/C(=C\c2ccc(-c3ccc(F)cc3)o2)S1	inactive
CC(=O)NCC(=O)N1[C@@H]2CC[C@H]1c1ccc(Nc3ncc(C(F)(F)F)c(NC4CCC4)n3)cc12	2.64 µM (active)
C[C@]12CCC3=C4CCC(=O)C=C4CC[C@H]3[C@@H]1CC[C@@]2(O)CC#N	inactive
c1nc2nc(Nc3ccc(N4CCOCC4)cc3)nc(NC3CCCCC3)c2[nH]1	8.33 µM (active)

Return reported AC50 values for all items listed beneath this line.
1. CC(O)[C@@H]1NC(=O)[C@H](CCCCN)NC(=O)[C@@H](Cc2c[nH]c3ccccc23)NC(=O)[C@H](Cc2ccccc2)NC(=O)[C@@H](NC(=O)[C@H](N)Cc2ccccc2)CSSC[C@@H](C(=O)N[C@H](CO)[C@@H](C)O)NC1=O (stereo partly drawn)
2. N#CC1(c2cccc(C(=O)Nc3cc(Oc4ccc5nc(NC(=O)C6CC6)sc5n4)ccc3F)c2Cl)CC1
3. C=C(c1ccc(C(=O)O)cc1)c1cc2c(cc1C)C(C)(C)CCC2(C)C

A:
inactive
inactive
inactive
